Source listed as PubChem BioAssay.

biological target: Torsin-1A (Homo sapiens) (UniProt O14656); assay: small-molecule binders of mutant TOR1A in lysate, primary screen, cell lysate, small-molecule microarray, COS7 lysate, 635/667 nm fluorescence (AID 1150); conditions: COS7 hTOR1A mutant lysate, 635 nm fluorescence, higher = more signal;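 also: score pools 667 nm emission and signal to noise measuring lysate protein binding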
Sequence (O14656 whole entry, looked up): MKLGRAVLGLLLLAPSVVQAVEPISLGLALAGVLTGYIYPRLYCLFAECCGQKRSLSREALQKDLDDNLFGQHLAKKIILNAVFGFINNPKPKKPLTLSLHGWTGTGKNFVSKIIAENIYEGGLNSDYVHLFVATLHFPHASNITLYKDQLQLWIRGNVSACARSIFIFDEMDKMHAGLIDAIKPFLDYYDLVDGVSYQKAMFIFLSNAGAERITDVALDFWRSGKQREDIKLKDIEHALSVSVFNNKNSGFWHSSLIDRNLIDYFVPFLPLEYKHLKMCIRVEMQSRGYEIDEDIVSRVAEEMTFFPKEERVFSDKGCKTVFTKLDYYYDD

| compound | composite z-score |
| --- | --- |
| CCCCCCc1nc(CCCc2cc3c(c(CCCCCC)n2)[Si](C(C)C)(C(C)C)OC3)cc2c1[Si](C(C)C)(C(C)C)OC2 | 0.0509 |
| COc1ccc(C#Cc2ccc3c(c2)[C@]2(C(=O)N3)[C@H](c3ccc(O)cc3)N3[C@H](c4ccccc4)[C@H](c4ccccc4)OC(=O)[C@H]3[C@@H]2C(=O)N2CCCCCCC2)cc1 | 1.43 |
| CC(C)(C)N1CC=CC23O[C@@H]4/C=C\CCCOC(=O)C4[C@H]2C(=O)N(CCO)[C@@H]3C1=O (stereo partly specified) | -0.875 |
| [N-]=[N+]=NCc1ccccc1C[C@]1(C(=O)O)N=C(c2ccc(OCCCO)cc2)O[C@H]1c1ccccc1 | 1.99 |
| COCCOC(=O)N1C(=O)[C@@]2(c3cc(C#CCNC(N)=O)ccc31)[C@H](c1ccc(OCCO)cc1)N1[C@H](c3ccccc3)[C@H](c3ccccc3)OC(=O)[C@H]1[C@@H]2C(=O)N1CCc2cc(OC)c(OC)cc2C1 | -0.193 |
| CCC[C@@H]1C=C(C(=O)O)[C@H](c2ccc(C)cc2)N1S(=O)(=O)c1ccc(C)cc1 | 1.38 |

###

experiment: compound binding in COS7 lysate, probe aLAP1, primary screen, cell lysate, small-molecule microarray (AID 1124); settings: probe aLAP1, fluorescence, higher = more signal;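 also: lysate comes from COS7 cells expressing LAP1 and is applied at 0.3 µg/mL; score merges spot fluorescence near 667 nm with signal-to-noise over triplicate slides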

| molecule | composite z-score |
| --- | --- |
| CC(C)C(=C=CC[C@@H](O)c1ccccc1OCCO)C[C@@H](O)c1ccccn1 | -0.0744 |
| [N-]=[N+]=Nc1ccccc1[C@H]1OC(c2ccc(OCCCO)cc2)=N[C@@]1(CCS(=O)(=O)c1ccccc1)C(=O)O | 0.425 |
| Cc1ccccc1C(O)C1C=CC2C(=O)N(C)C(=O)C2N1N1CCCCC1 (stereo not given) | 0.996 |
| COC(=O)[C@@]1(Cc2ccc(OC)cc2)[C@H]2c3cc(C(=O)N4CCCC4)n(Cc4cc(F)cc5c4OCOC5)c3C[C@H]2CN1C(=O)c1ccccc1 | -0.429 |
| CN(C)C(=O)[C@@]1(CCC(=O)OC(C)(C)C)N=C(c2ccc(OCCCO)cc2)O[C@H]1c1ccccc1 | 0.55 |

###

Measured z-score accompanies every entry in the list below.
test: P. aeruginosa biofilm formation inhibitors, primary screen, strain PAO1, LB-PBS medium, absorbance 600 nm (AID 1176); also: test concentration not given here; conditions: P. aeruginosa PAO1 growth/biofilm, A600, 12 h; higher = more signal

| compoundStructureString | z-score |
| --- | --- |
| C[C@]1(C(=O)NCc2ccccc2)c2ccccc2C(=O)N(Cc2ccc(OC(F)(F)F)cc2)[C@H]1c1ccc(CO)cc1 | 0.609 |
| Cc1ccc([C@H]2C(C(=O)O)=C[C@@H](C)N2S(=O)(=O)c2ccc(C)cc2)cc1 | -0.0322 |
| O=C(CS)NCCCCCCNC(=O)[C@H]1C[C@H]2C(=O)N3CCC[C@H]3C(=O)N2[C@H]1c1cccc(OCCO)c1 | 0.0499 |

###

test: mitochondrial membrane potential change in A549 cells, profiling panel, cell-based, JC-1 fluorescence, basal, 24 h, 100 nL (AID 1138); settings: higher = more signal;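 also: A549 lung adenocarcinoma cells under basal conditions with no added stimulus; test concentration not given here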

| molecule | z-score |
| --- | --- |
| CC(C)N1CC=CC23O[C@@H]4C=CCOC(=O)[C@@H]4[C@H]2C(=O)N(CCO)[C@@H]3C1=O (some centres not stated) | -0.346 |
| O=C1OCCC=C[C@H]2OC34C=CCN(Cc5ccccc5)C(=O)[C@H]3N(CCCCCCO)C(=O)[C@@H]4C12 (some centres not stated) | 0.544 |
| COCCOC(=O)N1C(=O)[C@@]2(c3ccccc31)[C@H](C(=O)NC[C@H](O)c1ccccc1)[C@H]1C(=O)O[C@H](c3ccccc3)[C@H](c3ccccc3)N1[C@@H]2c1ccc(OCCO)cc1 | -0.542 |
| CCCN1C(=O)[C@]2(COC(c3ccc(OCCCO)cc3)=N2)Cc2ccccc21 | 0.306 |
| COCCOC(=O)N1C(=O)[C@@]2(c3cc(C#CCNC(N)=O)ccc31)[C@H](C(=O)N1CCN(c3ncccn3)CC1)[C@H]1C(=O)O[C@H](c3ccccc3)[C@H](c3ccccc3)N1[C@@H]2c1ccccc1OCCO | -1.55 |
| CCOC(=O)C1=CCC(c2ccc(C#N)cc2)N(S(=O)(=O)c2ccc(C)cc2)C1 (configuration not stated) | -0.142 |
| COCCOC(=O)N1C(=O)[C@@]2(c3cc(C#Cc4ccc(OC)cc4)ccc31)[C@H](C(=O)N1CCN(c3ncccn3)CC1)[C@H]1C(=O)O[C@H](c3ccccc3)[C@H](c3ccccc3)N1[C@@H]2c1ccc(O)cc1 | -0.334 |

###

test system: PRMT1 (protein arginine N-methyltransferase 1); test: PRMT1 binders on small-molecule microarrays, primary screen, biochemical, small-molecule microarray, 635 nm fluorescence (AID 1088); conditions: small-molecule microarray binding, higher = more signal;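 also: binding of Prmt1 protein to compounds spotted on small-molecule microarray slides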
Examples of molecules with documented composite z-score follow.

| molecule | composite z-score |
| --- | --- |
| [N-]=[N+]=NCc1ccccc1[C@@H]1OC(c2ccc(OCCCO)cc2)=N[C@]1(Cc1ccccc1N=[N+]=[N-])C(=O)NCc1ccccc1 | 1.55 |
| C=CCC(OC(C)=O)[C@@H]1[C@@H](N(Cc2cccc3ccccc23)C(=O)c2ccc(C)cc2)c2cc(OCCCO)ccc2N1C(=O)Cc1ccc(OC)cc1 (some centres not stated) | 0.479 |
| O=C(CS)NCCCCCCNC(=O)[C@H]1C[C@H]2C(=O)NCC(=O)N2[C@H]1c1ccc(O)cc1 | 0.16 |
| COC(=O)[C@@]1(Cc2ccc(F)cc2)[C@H]2c3cc(C(=O)N(C)C)n(CCc4ccccn4)c3C[C@H]2CN1C(=O)c1ccccc1 | 1.16 |
| Cc1c(NC(=O)CC#N)c(=O)n(-c2ccccc2)n1C | 0.175 |
| C=CCC(OC(C)=O)[C@@H]1[C@@H](N(Cc2ccc(-c3ccccc3)cc2)C(=O)Cc2ccc(OC)cc2)c2cc(OCCCO)ccc2N1C(=O)c1ccc2ccccc2n1 (some centres not stated) | -0.298 |
| CCOC(=O)C1=CCC(C(C)(C)C)N(S(=O)(=O)c2ccc(C)cc2)C1 (configuration not stated) | 1.54 |
| C=CCOC(=O)[C@H]1[C@@H]2C(=O)O[C@@H](c3ccccc3)[C@@H](c3ccccc3)N2[C@@H](c2ccc(OCCOC(=O)[C@@H]3C[C@@H]4C(=O)N5CCC[C@H]5C(=O)N4[C@@H]3c3ccc(O)cc3)cc2)[C@]12C(=O)Nc1ccccc12 | 1.53 |
| Cc1cc(C)cc(N2C(=O)CS(=O)(=O)C2c2cccc([N+](=O)[O-])c2)c1 (configuration not stated) | 1.13 |
| CC(C)(C)OC(=O)CC[C@@]1(C(=O)NCCN2CCOCC2)N=C(c2ccc(OCCCO)cc2)O[C@@H]1c1ccccc1 | 1.57 |
| CC(C)C[C@@H]1NC(=O)[C@H]2C[C@@H](C(=O)NCCCCCCNC(=O)CS)[C@@H](c3cccc(OCCO)c3)N2C1=O | 1.4 |
| Cc1ccc(S[C@]2(C(=O)NCc3ccccc3)CC(=O)N(Cc3ccccc3)[C@@H]2c2ccc(CO)cc2)cc1 | 1.55 |
| COc1ccc(C#Cc2ccc3c(c2)[C@]2(C(=O)N3)[C@H](C(=O)NC[C@H](O)c3ccccc3)[C@H]3C(=O)O[C@H](c4ccccc4)[C@H](c4ccccc4)N3[C@@H]2c2ccc(OCCO)cc2)cc1 | 1.49 |
| COCCOC(=O)N1C(=O)[C@@]2(c3cc(C#CC4=CCCCC4)ccc31)[C@H](C(=O)N1CCc3cc(OC)c(OC)cc3C1)[C@H]1C(=O)O[C@H](c3ccccc3)[C@H](c3ccccc3)N1[C@@H]2c1ccccc1OCCO | 1.01 |
| C=CCOC(=O)[C@@H]1[C@H]2C(=O)O[C@H](c3ccccc3)[C@H](c3ccccc3)N2[C@H](c2ccc(OCCOC(=O)[C@@H]3C[C@@H]4C(=O)NCC(=O)N4[C@@H]3c3cccc(OCCO)c3)cc2)[C@@]12C(=O)Nc1ccc(I)cc12 | 1.53 |
| CC(C)CNC(=O)[C@@]1(c2ccc([N+](=O)[O-])cc2)CC(=O)N(CC23CC4CC(CC(C4)C2)C3)[C@@H]1c1ccc(CO)cc1I | 1.54 |
| Cc1ccc(S[C@]2(C(=O)NC3CC3)CC(=O)N(C3CCCCC3)[C@@H]2c2ccc(CO)cc2I)cc1 | 1.53 |

###

assay: MM1S myeloma cell viability, profiling panel, resazurin fluorescence, basal, 24 h, PK04 Diversity Set (AID 1174); conditions: higher = more signal, called active from +8 up or from −8 down;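 also: MM1S multiple myeloma cell line; test concentration not given here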
readout: z-score

| compound | readout | endpointResult |
| --- | --- | --- |
| C[C@H]1NC(=O)[C@H](Cc2ccccc2)NC(=O)[C@@]23C(=O)N[C@@H](Cc4ccccc4)C2[C@H](C)[C@@]2(C)O[C@H]2C3/C=C/C/C=C\CNC1=O (some centres undefined) | z-score | 0.557 |
| COc1cc(C(O)C2C=CC3C(=O)N(c4ccccc4)C(=O)C3N2Nc2ccc(C#N)cc2)cc(OC)c1OC (centres undefined) | z-score | -1.62 |
| [N-]=[N+]=NCc1ccccc1C[C@]1(C(=O)O)N=C(c2ccc(OCCCO)cc2)O[C@H]1c1ccccc1CN=[N+]=[N-] | z-score | 0.349 |
| Cc1c(NC(=O)CC#N)c(=O)n(-c2ccccc2)n1C | z-score | 1.07 |
| C[N+](C)(C)CCCCCCNC(=O)[C@H]1C[C@H]2C(=O)N3CCC[C@H]3C(=O)N2[C@H]1c1ccc(O)cc1 | z-score | 0.488 |
| COC(=O)[C@]1(Cc2ccccc2N=[N+]=[N-])N=C(c2ccc(OCCCO)cc2)O[C@@H]1c1ccccc1N=[N+]=[N-] | z-score | -6.71 |
| O=C1N(CCS(=O)(=O)c2ccccc2)Cc2ccccc2C[C@]12N=C(c1ccc(OCCCO)cc1)O[C@@H]2c1ccccc1 | z-score | -2.68 |
| CN1C=C(C(=O)OCCS(C)(=O)=O)C(C(=O)OCCS(C)(=O)=O)=CC(CCCO)=CC1C1CC1 (centres undefined) | z-score | -0.16 |
| O=C1O[C@@H](c2ccccc2)[C@@H](c2ccccc2)N2[C@@H](c3ccc(OCCO)cc3)[C@]3(C(=O)Nc4ccc(C#CC5=CCCCC5)cc43)[C@@H](C(=O)O)[C@H]12 | z-score | -1.5 |
| COC(=O)[C@@]1(Cc2ccccc2)[C@H]2c3cc(C(=O)N4CCCC4)n(Cc4ccc(C)o4)c3C[C@H]2CN1C(=O)c1ccccc1 | z-score | -1.5 |
| CC(C)c1ccc(NN2C(C(O)c3cccc(O)c3)C=CC3C(=O)N(c4ccccc4)C(=O)C32)cc1 (centres undefined) | z-score | -0.501 |
| C=C[C@@H](COC(C)=O)N(Cc1ccccc1[N+](=O)[O-])S(=O)(=O)c1ccc(Br)cc1 | z-score | -0.504 |
| N[C@@H](Cc1ccccc1)Cn1cc(-c2ccccc2)nn1 | z-score | -0.29 |
| CC(C)c1ccc(NN2C(C(O)c3c(F)cccc3Cl)C=CC3C(=O)N(c4ccccc4)C(=O)C32)cc1 (centres undefined) | z-score | -1.35 |
